Sourced from PubChem BioAssay AID624173

# TARGET_DESC: pyruvate kinase (Trypanosoma brucei) (UniProt Q57TT1)
# ASSAY_PROTOCOL: qHTS of Trypanosoma Brucei Inhibitors; also: nearly all actives have a fitted effect of over 50% in size
# MEASUREMENT_SETUP: TbPYK enzyme, Kinase-Glo Plus ATP luminescence, 45 min; series mostly up to 76.8 µM
Among all 410,000 compounds or so, about 490 (0.12%) were called active. Not shown: some 1% with an inconclusive outcome. Calls follow the shape of the dose curve; as a rule, active = well fitted inhibition curve with a large enough effect; inconclusive = small, poorly fitted or top-dose-only effect; inactive = flat fitted curve, though single readings scatter. The sample as a whole holds a higher share of actives than the screen did.
Would you mind answering with one of these outcomes? yes (1) = active, no (0) = inactive

Prompt: // return assay outcome for NNc1nnc(Cc2ccncc2)c2ccccc12
Completion: no (0)

Prompt: Similarly, O=C(Nc1cccc(F)c1)N1CC[C@@]2(CCCN(C(=O)Oc3ccccc3)C2)C1 ?
Completion: no (0)

Prompt: Query COc1ccccc1OCCCn1c(-c2ccc(Cl)cc2)nc2ccccc2c1=O next
Completion: no (0)

Prompt: // repeat for CC(C)NC(=O)N1CCCC2(CCN(C(=O)c3cccn3C)CC2)C1 and report
Completion: no (0)

Prompt: Do the same for CCCN(CC)[C@@H](CC)C(=O)Nc1c(C)cccc1C please
Completion: no (0)

Prompt: Same question, c1ccc2sc(SNC3CCCCC3)nc2c1 this time
Completion: no (0)

Prompt: Continue with CCOC(=O)c1c(NC(=O)CSc2cn(CCNC(=O)c3cccc(C(F)(F)F)c3)c3ccccc23)sc2c1CCC2
Completion: no (0)

Prompt: Can you check CCn1c(C(C)C)n[nH]c1=S next?
Completion: no (0)

Prompt: Check O=C(c1csnn1)N1CCC[C@@]2(CCN(Cc3nccs3)C2)C1 too.
Completion: no (0)

Prompt: Moving on to the next compound: CCNC[C@H](O)c1cccc(O)c1
Completion: no (0)

Prompt: # repeat for CCc1cc(-c2n[nH]c(=S)n2CC(C)C)cs1
Completion: yes (1)

Prompt: Please do the same for CCc1cc(-c2nnc(SCC(=O)NC3CC3)n2C)cs1 as well.
Completion: no (0)

---

# TARGET_DESC: pyruvate kinase (Trypanosoma brucei) (UniProt Q57TT1)
# ASSAY_PROTOCOL: qHTS of Trypanosoma Brucei Inhibitors; also: nearly all actives have a fitted effect of over 50% in size
# MEASUREMENT_SETUP: TbPYK enzyme, Kinase-Glo Plus ATP luminescence, 45 min; series mostly up to 76.8 µM
Among all 410,000 compounds or so, about 490 (0.12%) were called active. Not shown: some 1% with an inconclusive outcome. The entries come from a sample that favours actives as a whole.
TEST_READOUT: outcome

// known answers, use as guide
MOLECULE	TARGET_DESC	TEST_READOUT	TEST_VALUE
NC(=O)C(=O)N/N=C/c1ccc([N+](=O)[O-])o1	pyruvate kinase (Trypanosoma brucei) (UniProt Q57TT1)	outcome	inactive
O=C(c1ccncc1)N1CCC2(CCCN(C(c3ccccc3)c3ccccc3)C2)CC1	pyruvate kinase (Trypanosoma brucei) (UniProt Q57TT1)	outcome	inactive
c1ccc(N2CC[C@@]3(CCCNC3)C2)nc1	pyruvate kinase (Trypanosoma brucei) (UniProt Q57TT1)	outcome	inactive
CCNc1ncc2ncc(=O)n(CCc3ccccc3)c2n1	pyruvate kinase (Trypanosoma brucei) (UniProt Q57TT1)	outcome	inactive
O=C(c1cc(C(F)(F)F)cc(C(F)(F)F)c1)N1CCC2(CCCN(c3ccccn3)C2)CC1	pyruvate kinase (Trypanosoma brucei) (UniProt Q57TT1)	outcome	inactive
O=C(Nc1cccc(C(F)(F)F)c1)c1cc(Br)cc(Br)c1O	pyruvate kinase (Trypanosoma brucei) (UniProt Q57TT1)	outcome	inactive
C[C@]12CCC3[C@@H](CCC4=CC(=O)CC[C@@]43C)C1CCC2OC(=O)CCc1ccccc1 (stereo partly drawn)	pyruvate kinase (Trypanosoma brucei) (UniProt Q57TT1)	outcome	inactive

# ---- query molecule ----
Prompt: I'd like to know its outcome. The molecule in question is CCOC(=O)Cc1cccc(-c2cc(CCCCCCc3ccc(O[C@H]4O[C@H](COC(C)=O)[C@@H](OC(C)=O)[C@H](OC(C)=O)[C@@H]4OC(C)=O)c(-c4cccc(CC(=O)OCC)c4)c3)ccc2O[C@H]2O[C@H](COC(C)=O)[C@@H](OC(C)=O)[C@H](OC(C)=O)[C@@H]2OC(C)=O)c1
Completion: inactive
